Assay: Pharmacokinetics after oral administration of 20 mg/kg to CON and PHL rats
Format: in vivo, Sprague–Dawley rats
Details: Sprague-Dawley, rat, plasma, po, 20 mg/kg, PHL rats (n = 7), read-out: k (elimination rate constant) (converted)
Measured Property: k el (s⁻¹)
The figure you give is taken to be in s⁻¹; do not add the unit.

Dear colleague, I am looking for the recorded k el of the following molecule: C[C@@H]1CCN(C(=O)CC#N)C[C@@H]1N(C)c1ncnc2[nH]ccc12
0.000145

====

Assay: in vitro
Type: in vitro ADME, rat
Settings: rat, plasma, Free (unbound to plasma proteins) fraction in plasma
Measured Property: fraction unbound at 30 min, 5 µg/mL
Quick one: just the number, no unit, thanks!

Dear colleague, I am looking for the recorded fraction unbound at 30 min, 5 µg/mL of the following molecule: C[C@@H]1CCN(C(=O)CC#N)C[C@@H]1N(C)c1ncnc2[nH]ccc12
0.667

====

Assay: Pharmacokinetics after oral administration of 20 mg/kg to CON and PHL rats
Type: in vivo, Sprague–Dawley rats
Conditions: Sprague-Dawley, rat, plasma, po, 20 mg/kg, PHL rats (n = 7)
Measured Property: AUC(0-inf) (ng·h/mL)
The figure you give is taken to be in ng·h/mL; do not add the unit.

Dear colleague, I am looking for the recorded AUC(0-inf) of the following compound: C[C@@H]1CCN(C(=O)CC#N)C[C@@H]1N(C)c1ncnc2[nH]ccc12 [tofacitinib, Tofacitinib]
7950

====

Assay: in vivo
Details: Sprague-Dawley, rat, plasma, iv, 10 mg/kg, k (elimination rate constant), PHL rats (n = 6)
Measured Property: k el (s⁻¹)
The figure you give is taken to be in s⁻¹; do not add the unit.

Dear colleague, I am looking for the recorded k el of the following molecule: C[C@@H]1CCN(C(=O)CC#N)C[C@@H]1N(C)c1ncnc2[nH]ccc12 [tofacitinib, Tofacitinib]
0.000337

====

Experiment: in vivo
Settings: Sprague-Dawley, rat, plasma, iv, 10 mg/kg, MRT (mean residence time), PHL rats (n = 6)
Measured Property: MRT (min)
The figure you give is taken to be in min; do not add the unit.

Dear colleague, I am looking for the recorded MRT of the following compound: C[C@@H]1CCN(C(=O)CC#N)C[C@@H]1N(C)c1ncnc2[nH]ccc12
22.7

====

Test: in vivo
Conditions: Sprague-Dawley, rat, plasma, iv, 10 mg/kg, AUC (AUC0–∞), CON rats (n = 7)
Measured Property: AUC(0-inf) (µg·h/mL)
The figure you give is taken to be in µg·h/mL; do not add the unit.

Dear colleague, I am looking for the recorded AUC(0-inf) of the following compound: C[C@@H]1CCN(C(=O)CC#N)C[C@@H]1N(C)c1ncnc2[nH]ccc12 [tofacitinib, Tofacitinib]
4.47

====

Assay: Pharmacokinetics after oral administration of 20 mg/kg to CON and PHL rats
Format: in vivo, Sprague–Dawley rats
Settings: Sprague-Dawley, rat, plasma, po, 20 mg/kg, CON rats, read-out: F (absolute oral bioavailability)
Measured Property: bioavailability (%)
The figure you give is taken to be in %; do not add the unit.

Dear colleague, I am looking for the recorded bioavailability of the following compound: C[C@@H]1CCN(C(=O)CC#N)C[C@@H]1N(C)c1ncnc2[nH]ccc12
53.7

Every entry's value here was drawn from paper PMC10534486.
